# maps each entry to its EC50
- Test Target: human GPR120 (Homo sapiens)
- Construct: expressed in transfected cells; host or cells: CHOA12 cells
- Sequence (Q5NUL3 1-361): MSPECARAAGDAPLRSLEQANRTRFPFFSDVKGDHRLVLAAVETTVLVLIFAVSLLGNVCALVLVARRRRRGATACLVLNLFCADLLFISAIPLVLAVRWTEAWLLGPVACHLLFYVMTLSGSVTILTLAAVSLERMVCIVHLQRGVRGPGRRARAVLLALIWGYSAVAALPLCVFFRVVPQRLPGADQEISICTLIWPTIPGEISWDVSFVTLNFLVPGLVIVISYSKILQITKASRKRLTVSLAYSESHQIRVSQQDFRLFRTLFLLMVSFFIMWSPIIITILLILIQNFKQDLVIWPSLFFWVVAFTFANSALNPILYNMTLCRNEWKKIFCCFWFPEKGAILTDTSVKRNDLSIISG
- Assay Comment: GPR120 pERK AlphaScreen SureFire assay (human)
- Assay type: cell-based
- Recorded Conditions: CHO cells stably transfected with short form of human GPR120
Measured Property: EC50 (nM)

[[record]]
compound = "COc1ccc(Oc2cccc(C34CCC(CC[C@@H]5C[C@H]5C(=O)O)(CC3)CO4)c2)cc1"
measured_property = "EC50"
unit_descriptor = "nM"
value_reported = 1170

[[record]]
compound = "O=C(O)COCCC12CCC(c3cccc(Oc4ccc(F)cc4)c3)(CC1)OC2"
measured_property = "EC50"
unit_descriptor = "nM"
value_reported = 200

[[record]]
compound = "COC(CCC12CCC(c3cccc(Oc4ccccc4)c3)(CC1)OC2)CC(=O)O (centres unmarked)"
measured_property = "EC50"
unit_descriptor = "nM"
value_reported = 1900

[[record]]
compound = "O=C(O)CCCCC12CCC(c3cccc(OC4CCCCO4)c3)(CC1)OC2 (centres unmarked)"
measured_property = "EC50"
unit_descriptor = "nM"
value_reported = 640

[[record]]
compound = "O=C(O)C[C@H]1C[C@@H]1CC12CCC(c3cccc(Oc4ccccc4)c3)(CC1)OC2 (single isomer, unassigned)"
measured_property = "EC50"
unit_descriptor = "nM"
value_reported = 260

[[record]]
compound = "O=C(O)COCCC12CCC(c3cccc(Oc4cccnc4)c3)(CC1)CO2"
measured_property = "EC50"
unit_descriptor = "nM"
value_reported = 7780

[[record]]
compound = "COc1cc(Oc2ccc(C)c(F)c2)cc(C23CCC(CCOCC(=O)O)(CC2)CO3)c1"
measured_property = "EC50"
unit_descriptor = "nM"
value_reported = 520

[[record]]
compound = "O=C(O)[C@@H]1C[C@@H]1CCC12CCC(c3cccc(Oc4ccccc4)c3)(CC1)OC2 (racemic)"
measured_property = "EC50"
unit_descriptor = "nM"
value_reported = 580


====

- Test Target: UniProt:Q5NUL3
- Assay Comment: GPR120 pERK AlphaScreen SureFire assay (human)
- Recorded Conditions: CHO cells stably transfected with short form of human GPR120
# maps each entry to its EC50
Measured Property: EC50 (nM)

[[record]]
molecule = "Cc1ccc(Oc2cc(C34CCC(CCOCC(=O)O)(CC3)OC4)ccc2F)cc1C [Example 113]"
value_reported = 860

[[record]]
molecule = "Cc1ccc(Oc2cccc(C34CCC(CCOCC(=O)O)(CC3)CO4)c2)cc1F [Example 77]"
value_reported = 230

[[record]]
molecule = "O=C(O)COCCC12CCC(c3cc(F)cc(Oc4ccccc4)c3)(CC1)OC2 [Example 23]"
value_reported = 310

[[record]]
molecule = "COc1cccc(Oc2cccc(C34CCC(CCOCC(=O)O)(CC3)CO4)c2)c1 [Example 22]"
value_reported = 380

[[record]]
molecule = "COc1cccc(Oc2cccc(C34CCC(CC[C@@H]5C[C@H]5C(=O)O)(CC3)CO4)c2)c1 (single isomer, unassigned) [Example 67]"
value_reported = 750

[[record]]
molecule = "O=C(NCc1ncn[nH]1)[C@@H]1C[C@H]1CCC12CCC(c3cccc(Oc4ccccc4)c3)(CC1)OC2 (single isomer, unassigned) [Example 62]"
value_reported = 1220

[[record]]
molecule = "O=C(O)C[C@@H]1C[C@H]1CC12CCC(c3cccc(Oc4ccccc4)c3)(CC1)OC2 (single isomer, unassigned) [Example 18]"
value_reported = 410

[[record]]
molecule = "CCCC(C)Oc1cccc(C23CCC(CCOCC(=O)O)(CC2)CO3)c1 (racemic) [Example 53]"
value_reported = 1030

[[record]]
molecule = "O=C(O)COCCC12CCC(c3cc(F)cc(Oc4ccc(F)c(F)c4)c3)(CC1)OC2 [Example 79]"
value_reported = 550

[[record]]
molecule = "O=C(O)COCCC12CCC(c3cccc(C4=CCCC4)c3)(CC1)OC2 [Example 24]"
value_reported = 800

[[record]]
molecule = "O=C(O)[C@@H]1C[C@H]1CCC12CCC(c3cc(F)cc(Oc4cccc(F)c4)c3)(CC1)OC2 (single isomer, unassigned) [Example 64]"
value_reported = 260

[[record]]
molecule = "O=C(O)C/C=C/CC12CCC(c3cccc(Oc4ccccc4)c3)(CC1)OC2 [Example 34]"
value_reported = 70

[[record]]
molecule = "COc1ccc(Oc2cccc(C34CCC(CCOCC(=O)O)(CC3)OC4)c2)cc1F [Example 100]"
value_reported = 550

[[record]]
molecule = "O=C(O)COCCC12CCC(c3cccc(Oc4ccc(F)c(F)c4)c3)(CC1)OC2 [Example 75]"
value_reported = 400

[[record]]
molecule = "O=C(O)C1CC1CCC12CCC(c3cc(F)cc(Oc4ccccc4)c3)(CC1)OC2 (single isomer, unassigned) [Example 63]"
value_reported = 370

[[record]]
molecule = "CS(=O)(=O)NC(=O)CCCCC12CCC(c3cccc(Oc4ccccc4)c3)(CC1)OC2 [Example 26]"
value_reported = 170

[[record]]
molecule = "O=C(CCCCC12CCC(c3cccc(Oc4ccccc4)c3)(CC1)OC2)NS(=O)(=O)c1ccccc1 [Example 25]"
value_reported = 590

[[record]]
molecule = "Cc1ccc(Oc2cccc(C34CCC(CCOCC(=O)O)(CC3)OC4)c2)cc1 [Example 106]"
value_reported = 580

[[record]]
molecule = "O=C(O)CC1CC1CC12CCC(c3cccc(Oc4ccccc4)c3)(CC1)OC2 (centres unmarked) [Example 16]"
value_reported = 160

[[record]]
molecule = "O=C(O)COCCC12CCC(c3cccc(Oc4ccccn4)c3)(CC1)CO2 [Example 109]"
value_reported = 5550

[[record]]
molecule = "O=C(O)CCC12CCC(c3cccc(Oc4ccccc4)c3)(CC1)OC2 [Example 1]"
value_reported = 2310

[[record]]
molecule = "N#Cc1cccc(Oc2cccc(C34CCC(CCOCC(=O)O)(CC3)OC4)c2)c1 [Example 107]"
value_reported = 1870

[[record]]
molecule = "Cc1ccc(Oc2cccc(C34CCC(CCOCC(=O)O)(CC3)CO4)c2)cc1 [Example 41]"
value_reported = 200

[[record]]
molecule = "O=C(O)COCCC12CCC(c3cccc(C(F)(F)F)c3)(CC1)OC2 [Example 49]"
value_reported = 3310

[[record]]
molecule = "O=C(O)CCOCC12CCC(c3cccc(Oc4ccccc4)c3)(CC1)OC2 [Example 5]"
value_reported = 80

[[record]]
molecule = "COc1ccc(Oc2cccc(C34CCC(CCOCC(=O)O)(CC3)CO4)c2)cc1 [Example 42]"
value_reported = 370

[[record]]
molecule = "Cc1ccc(Oc2cccc(C34CCC(CCOCC(=O)O)(CC3)OC4)c2)cc1F [Example 101]"
value_reported = 320

[[record]]
molecule = "O=C(O)COCCC12CCC(c3cccc(Oc4cc(F)cc(F)c4)c3)(CC1)OC2 [Example 76]"
value_reported = 420

[[record]]
molecule = "Cc1cc(Oc2cccc(C34CCC(CCOCC(=O)O)(CC3)OC4)c2)ccc1F [Example 103]"
value_reported = 540

[[record]]
molecule = "COc1cc(Oc2ccc(F)c(F)c2)cc(C23CCC(CCOCC(=O)O)(CC2)CO3)c1 [Example 91]"
value_reported = 630

[[record]]
molecule = "O=C(O)COC(=O)NCC12CCC(c3cccc(Oc4ccccc4)c3)(CC1)OC2 [Example 28]"
value_reported = 1980

[[record]]
molecule = "COc1cccc(Oc2cc(F)cc(C34CCC(CCOCC(=O)O)(CC3)CO4)c2)c1 [Example 82]"
value_reported = 810


====

# maps each entry to its EC50
- Test Target: human GPR120 (Homo sapiens, UniProt Q5NUL3)
- Sequence (Q5NUL3 1-361): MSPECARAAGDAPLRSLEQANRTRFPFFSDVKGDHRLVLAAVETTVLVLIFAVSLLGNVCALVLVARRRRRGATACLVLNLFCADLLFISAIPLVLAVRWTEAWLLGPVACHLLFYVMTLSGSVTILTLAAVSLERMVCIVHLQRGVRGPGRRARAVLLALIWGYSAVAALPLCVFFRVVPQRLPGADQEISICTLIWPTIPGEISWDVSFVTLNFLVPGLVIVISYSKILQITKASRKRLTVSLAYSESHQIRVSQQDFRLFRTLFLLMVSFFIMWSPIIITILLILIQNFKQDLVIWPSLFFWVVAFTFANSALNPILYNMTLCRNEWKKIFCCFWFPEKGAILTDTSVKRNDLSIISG
- Assay Comment: GPR120 pERK AlphaScreen SureFire assay (human)
- Recorded Conditions: CHO cells stably transfected with short form of human GPR120
Measured Property: EC50 (nM)

[[record]]
compound = "O=C(O)COCCC12CCC(c3cc(F)cc(Oc4cccc(F)c4)c3)(CC1)OC2 [Example 55]"
value_reported = 330

[[record]]
compound = "COc1cc(Oc2ccc(F)cc2)cc(C23CCC(CCOCC(=O)O)(CC2)CO3)c1 [Example 92]"
value_reported = 800

[[record]]
compound = "O=C(O)COCCC12CCC(c3ccc(F)c(Oc4ccccc4)c3)(CC1)OC2 [Example 87]"
value_reported = 410

[[record]]
compound = "O=C(O)COCCC12CCC(c3cc(F)cc(OCC(F)(F)F)c3)(CC1)OC2 [Example 54]"
value_reported = 3470

